Values compiled from patent US20160008277A1.

- experimentalDetails: clinical
- testContext: human, plasma, im, 0.4 mg, Tmax, GLSM, 0.4 mg IM
parameterMeasured: Tmax
Param answer (str): number followed by unit.

Entry under test: C=CCN1CC[C@]23c4c5ccc(O)c4O[C@H]2C(=O)CC[C@@]3(O)[C@H]1C5 . Its Tmax was 18.5 min

* * *

- experimentalDetails: clinical
- testContext: human, plasma, other: intranasal, 4 mg, Tmax, Mean, 4 mg IN
parameterMeasured: Tmax (min)
Kindly provide the numeric value in min only, without the unit symbol.

Record C=CCN1CC[C@]23c4c5ccc(O)c4O[C@H]2C(=O)CC[C@@]3(O)[C@H]1C5 [naloxone] , field Tmax: 18.4

* * *

- experimentalDetails: clinical
- testContext: human, plasma, other: intranasal, 2 mg, AUC0-t, Mean, 2 mg IN
parameterMeasured: AUC(0-t) (ng·h/mL)
API: value field is a number in ng·h/mL; no unit string.

Reported AUC(0-t) ( C=CCN1CC[C@]23c4c5ccc(O)c4O[C@H]2C(=O)CC[C@@]3(O)[C@H]1C5 ) = 3.41

* * *

- experimentalDetails: clinical
- testContext: female, human, plasma, im, 0.4 mg, Cmax, 0.4 mg IM
parameterMeasured: Cmax
# do not omit the unit; it follows the number

Entry C=CCN1CC[C@]23c4c5ccc(O)c4O[C@H]2C(=O)CC[C@@]3(O)[C@H]1C5 , Cmax reported as 1.06 ng/mL

* * *

- experimentalDetails: clinical
- testContext: human, plasma, other: intranasal, 4 mg, AUC0-t, GLSM, 4 mg IN; no dose adjustment
parameterMeasured: AUC(0-t) (ng·h/mL)
The answer is to be given in ng·h/mL; state only the numeric part.

Data point: C=CCN1CC[C@]23c4c5ccc(O)c4O[C@H]2C(=O)CC[C@@]3(O)[C@H]1C5 [naloxone] ; AUC(0-t) = 5.41

* * *

- experimentalDetails: clinical
- testContext: female, human, plasma, other: intranasal, 4 mg, Cmax, One 40 mg/mL IN; Female
parameterMeasured: Cmax
Enter the number, and then the unit.

Value of Cmax reported for the molecule C=CCN1CC[C@]23c4c5ccc(O)c4O[C@H]2C(=O)CC[C@@]3(O)[C@H]1C5 [naloxone] is 5.12 ng/mL

* * *

- experimentalDetails: clinical
- testContext: human, plasma, im, 0.4 mg, AUC0-t, GLSM, 0.4 mg IM; no dose adjustment
parameterMeasured: AUC(0-t)

// AUC(0-t) lookup, compound = C=CCN1CC[C@]23c4c5ccc(O)c4O[C@H]2C(=O)CC[C@@]3(O)[C@H]1C5 [naloxone] , result: 1.35 ng·h/mL

* * *

- experimentalDetails: clinical
- testContext: human, plasma, im, 0.4 mg, Tmax (median, range), 0.4 mg IM
parameterMeasured: Tmax (min)
Report only the number, with the unit min understood.

Given item C=CCN1CC[C@]23c4c5ccc(O)c4O[C@H]2C(=O)CC[C@@]3(O)[C@H]1C5 [naloxone] , the value recorded as its Tmax is 25.2

* * *

- experimentalDetails: clinical
- testContext: human, plasma, other: intranasal, 4 mg, Cmax, mean (% CV), Two Sprays - 4 mg 20 mg/mL IN
parameterMeasured: Cmax (ng/mL)
Response body: numeric value in ng/mL, unit text excluded.

Cmax reading for C=CCN1CC[C@]23c4c5ccc(O)c4O[C@H]2C(=O)CC[C@@]3(O)[C@H]1C5 [naloxone] : 6.63
